Target: T1, human LAG3 expressed on cells (human, UniProt P18627 23-525)
T1 construct: whole, on cells
T1 sequence (looked up): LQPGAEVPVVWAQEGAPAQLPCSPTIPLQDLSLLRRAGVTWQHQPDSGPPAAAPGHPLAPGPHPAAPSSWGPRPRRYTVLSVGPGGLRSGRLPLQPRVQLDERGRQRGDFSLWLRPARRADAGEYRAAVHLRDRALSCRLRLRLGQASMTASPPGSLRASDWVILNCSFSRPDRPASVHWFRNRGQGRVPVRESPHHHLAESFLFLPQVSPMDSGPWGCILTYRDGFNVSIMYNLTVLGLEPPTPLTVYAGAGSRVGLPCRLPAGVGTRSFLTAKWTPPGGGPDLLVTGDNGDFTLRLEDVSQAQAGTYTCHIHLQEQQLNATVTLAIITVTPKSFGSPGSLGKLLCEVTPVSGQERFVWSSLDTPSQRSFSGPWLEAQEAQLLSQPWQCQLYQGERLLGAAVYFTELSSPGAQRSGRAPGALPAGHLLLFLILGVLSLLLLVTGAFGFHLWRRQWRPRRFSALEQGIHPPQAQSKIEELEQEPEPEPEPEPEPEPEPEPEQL
Assay: cell ELISA, 293T-hLAG3 cells
Documented OD450 at 0.0411523 ug/ml across a set of binders
Keep the answer to the number alone.

// below: answered binders
sdAb No. 27-H2 (VHH, Modified sdAb No. 27 (CDR2 DG to EG); not shown: Fc part implied by anti-human IgG1 Fc detection) VHH: QVQLVESGGGLVQPGGSLRLSCAASGFTLDYYAIGWFRQAPGKEREGVSCIRSSEGSTYYADSVKGRFTISSDNTKNTVYLQMNSLKPEDTAVYYCATDRYSDCRGPYENWGQGTQVTVSS
0.314
sdAb No. 17-H1 (VHH, Modified sdAb No. 17 (CDR1 DG to DA); not shown: Fc part implied by anti-human IgG1 Fc detection) VHH: QLQLVESGGGLVQPGGSLRLSCAASGLTLDAYAIGWFRQAPGKEREGLACISGSDGSTHYLDSVKGRFTISRDNGKNTMALQMNSLQFGDTAIYYCAARRGSCSGSWTYWGQGTQVTVSS
0.527
sdAb No. 17-H3 (VHH, Modified sdAb No. 17 (CDR2 DG to DA); not shown: Fc part implied by anti-human IgG1 Fc detection) VHH: QLQLVESGGGLVQPGGSLRLSCAASGLTLDGYAIGWFRQAPGKEREGLACISGSDASTHYLDSVKGRFTISRDNGKNTMALQMNSLQFGDTAIYYCAARRGSCSGSWTYWGQGTQVTVSS
0.43

Could you now look at the following binder, please?
Exercise: Give OD450 at 0.0411523 ug/ml for sdAb No. 17 (VHH, Fc of the tested form not described; also called sdAb 17; not shown: Fc part implied by anti-human Fc capture and anti-human IgG1 Fc detection) VHH: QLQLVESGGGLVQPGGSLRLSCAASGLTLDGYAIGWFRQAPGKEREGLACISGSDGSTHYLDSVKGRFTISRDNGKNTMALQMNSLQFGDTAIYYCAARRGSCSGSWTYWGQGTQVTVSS
Solution: 0.543
